Quick reference for THP-1 cell loss among some compounds
Tested on: THP-1
Assay: THP-1 cell loss relative to DMSO control; higher = more host cell loss (toxicity); extreme values may be limits of the assay
Settings: 10 µM; 4 days; infection: M. tuberculosis H37Rv
experimental.endpoint: THP-1 cell loss (%)

INSERT INTO assay_data (compound, experimental_value) VALUES
  ('O=C(NC[C@H](O)CO)c1ccncc1Nc1ccc(I)cc1F', 100),
  ('O=C(NC(NC(=S)Nc1ccc(F)c([N+](=O)[O-])c1)C(Cl)(Cl)Cl)C(c1ccccc1)c1ccccc1 (stereo not drawn)', 100),
  ('CCCOc1ccc(/C=C2/SC(=O)NC2=O)cc1 [PIM1/2 Kinase Inhibitor VI]', 4.36);
